The reported measurements were obtained from patent US20110294728A1.

molecular target: HIV-1 integrase (HIV-1); test: cell-based or functional assay
Reported metric: EC50 (µM) IN/DNA binding
Provide only the numeric value, understood in µM.

Sample records with EC50 (µM) IN/DNA binding:
binder="GTKWLTEWIPL (modifications not checked) [P24]" unit_of_measure=µM measured_result=35
binder="KWLTEWIPLTAEAE (modifications not checked) [P26]" unit_of_measure=µM measured_result=54
binder="GTKWLTEWIPLTAEAE (modifications not checked) [PAW]" unit_of_measure=µM measured_result=10

Note: attention shifts to another entry.
Lookup: Provide one value: measured EC50 (µM) IN/DNA binding of GTKWLTEVWPL (modifications not checked) [P16]
Found: 8
